system tested: Cholecystokinin receptor type A (Cavia porcellus, UniProt Q63931)
Sequence (Q63931 whole entry): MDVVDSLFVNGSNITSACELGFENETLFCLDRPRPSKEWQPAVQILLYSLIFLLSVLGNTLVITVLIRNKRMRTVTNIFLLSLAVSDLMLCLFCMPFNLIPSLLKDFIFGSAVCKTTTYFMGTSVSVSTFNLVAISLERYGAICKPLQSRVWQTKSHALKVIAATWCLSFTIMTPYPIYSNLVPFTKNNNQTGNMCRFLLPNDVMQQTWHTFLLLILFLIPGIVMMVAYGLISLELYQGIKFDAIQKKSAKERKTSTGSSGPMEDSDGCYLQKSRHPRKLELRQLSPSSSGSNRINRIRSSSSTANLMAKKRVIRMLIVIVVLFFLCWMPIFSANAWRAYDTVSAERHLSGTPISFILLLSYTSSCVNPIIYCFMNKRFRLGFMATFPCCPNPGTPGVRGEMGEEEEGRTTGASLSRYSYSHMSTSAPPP
Each entry below carries its reported pKi.
// pKi is dimensionless: -log10 of concentration (M)

{"compound": "COc1ccc(CCNC(=O)C(C)(Cc2c[nH]c3ccccc23)NC(=O)OC2[C@H]3C[C@@H]4C[C@@H](C[C@H]2C4)C3)cc1 (stereo not given in full)", "pKi": 5.51}
{"compound": "CC(Cc1c[nH]c2ccccc12)(NC(=O)OC1[C@H]2C[C@@H]3C[C@@H](C[C@H]1C3)C2)C(=O)NCCc1ccc(Br)cc1 (stereo not given in full)", "pKi": 5.67}
{"compound": "CC(Cc1c[nH]c2ccccc12)(NC(=O)OC1[C@H]2C[C@@H]3C[C@@H](C[C@H]1C3)C2)C(=O)N(CCC(=O)O)CCc1ccccc1 (stereo not given in full)", "pKi": 5.88}

Find the recorded pKi belonging to CC(Cc1c[nH]c2ccccc12)(NC(=O)OC1[C@H]2C[C@@H]3C[C@@H](C[C@H]1C3)C2)C(=O)NCCc1ccc(Cl)cc1Cl (stereo not given in full) and report it.
5.50

Find the recorded pKi belonging to CC(Cc1c[nH]c2ccccc12)(NC(=O)Nc1ccc2ccccc2c1)C(=O)NCCc1ccccc1 (stereo not given) and report it.
6.11

Find the recorded pKi belonging to O=C(O)CN(CCc1ccccc1)C(=O)C(Cc1c[nH]c2ccccc12)NC(=O)OC1[C@H]2C[C@@H]3C[C@@H](C[C@H]1C3)C2 (stereo not given in full) and report it.
5.55

Find the recorded pKi belonging to CC(Cc1ccccc1)(NC(=O)OC1[C@H]2C[C@@H]3C[C@@H](C[C@H]1C3)C2)C(=O)N(CCc1ccccc1)CC(=O)O (stereo not given in full) and report it.
5.42

Find the recorded pKi belonging to CC(Cc1c[nH]c2ccccc12)(C(=O)OC1[C@H]2C[C@@H]3C[C@@H](C[C@H]1C3)C2)C(=O)N(CCc1ccc(Cl)cc1Cl)CC(=O)O (stereo not given in full) and report it.
5.52

Find the recorded pKi belonging to CC(Cc1ccc(Br)cc1)(NC(=O)OC1[C@H]2C[C@@H]3C[C@@H](C[C@H]1C3)C2)C(=O)N(CCc1ccccc1)CC(=O)O (stereo not given in full) and report it.
5.47

Find the recorded pKi belonging to CC(Cc1c[nH]c2ccccc12)(NC(=O)OC1[C@H]2C[C@@H]3C[C@@H](C[C@H]1C3)C2)C(=O)NCCc1ccc(Cl)c(Cl)c1 (stereo not given in full) and report it.
5.81
